Reported inhibition at 0.01 µM values follow for various compounds
Biological target: LRRK2 (Homo sapiens, UniProt Q5S007)
Sequence (Q5S007 whole entry): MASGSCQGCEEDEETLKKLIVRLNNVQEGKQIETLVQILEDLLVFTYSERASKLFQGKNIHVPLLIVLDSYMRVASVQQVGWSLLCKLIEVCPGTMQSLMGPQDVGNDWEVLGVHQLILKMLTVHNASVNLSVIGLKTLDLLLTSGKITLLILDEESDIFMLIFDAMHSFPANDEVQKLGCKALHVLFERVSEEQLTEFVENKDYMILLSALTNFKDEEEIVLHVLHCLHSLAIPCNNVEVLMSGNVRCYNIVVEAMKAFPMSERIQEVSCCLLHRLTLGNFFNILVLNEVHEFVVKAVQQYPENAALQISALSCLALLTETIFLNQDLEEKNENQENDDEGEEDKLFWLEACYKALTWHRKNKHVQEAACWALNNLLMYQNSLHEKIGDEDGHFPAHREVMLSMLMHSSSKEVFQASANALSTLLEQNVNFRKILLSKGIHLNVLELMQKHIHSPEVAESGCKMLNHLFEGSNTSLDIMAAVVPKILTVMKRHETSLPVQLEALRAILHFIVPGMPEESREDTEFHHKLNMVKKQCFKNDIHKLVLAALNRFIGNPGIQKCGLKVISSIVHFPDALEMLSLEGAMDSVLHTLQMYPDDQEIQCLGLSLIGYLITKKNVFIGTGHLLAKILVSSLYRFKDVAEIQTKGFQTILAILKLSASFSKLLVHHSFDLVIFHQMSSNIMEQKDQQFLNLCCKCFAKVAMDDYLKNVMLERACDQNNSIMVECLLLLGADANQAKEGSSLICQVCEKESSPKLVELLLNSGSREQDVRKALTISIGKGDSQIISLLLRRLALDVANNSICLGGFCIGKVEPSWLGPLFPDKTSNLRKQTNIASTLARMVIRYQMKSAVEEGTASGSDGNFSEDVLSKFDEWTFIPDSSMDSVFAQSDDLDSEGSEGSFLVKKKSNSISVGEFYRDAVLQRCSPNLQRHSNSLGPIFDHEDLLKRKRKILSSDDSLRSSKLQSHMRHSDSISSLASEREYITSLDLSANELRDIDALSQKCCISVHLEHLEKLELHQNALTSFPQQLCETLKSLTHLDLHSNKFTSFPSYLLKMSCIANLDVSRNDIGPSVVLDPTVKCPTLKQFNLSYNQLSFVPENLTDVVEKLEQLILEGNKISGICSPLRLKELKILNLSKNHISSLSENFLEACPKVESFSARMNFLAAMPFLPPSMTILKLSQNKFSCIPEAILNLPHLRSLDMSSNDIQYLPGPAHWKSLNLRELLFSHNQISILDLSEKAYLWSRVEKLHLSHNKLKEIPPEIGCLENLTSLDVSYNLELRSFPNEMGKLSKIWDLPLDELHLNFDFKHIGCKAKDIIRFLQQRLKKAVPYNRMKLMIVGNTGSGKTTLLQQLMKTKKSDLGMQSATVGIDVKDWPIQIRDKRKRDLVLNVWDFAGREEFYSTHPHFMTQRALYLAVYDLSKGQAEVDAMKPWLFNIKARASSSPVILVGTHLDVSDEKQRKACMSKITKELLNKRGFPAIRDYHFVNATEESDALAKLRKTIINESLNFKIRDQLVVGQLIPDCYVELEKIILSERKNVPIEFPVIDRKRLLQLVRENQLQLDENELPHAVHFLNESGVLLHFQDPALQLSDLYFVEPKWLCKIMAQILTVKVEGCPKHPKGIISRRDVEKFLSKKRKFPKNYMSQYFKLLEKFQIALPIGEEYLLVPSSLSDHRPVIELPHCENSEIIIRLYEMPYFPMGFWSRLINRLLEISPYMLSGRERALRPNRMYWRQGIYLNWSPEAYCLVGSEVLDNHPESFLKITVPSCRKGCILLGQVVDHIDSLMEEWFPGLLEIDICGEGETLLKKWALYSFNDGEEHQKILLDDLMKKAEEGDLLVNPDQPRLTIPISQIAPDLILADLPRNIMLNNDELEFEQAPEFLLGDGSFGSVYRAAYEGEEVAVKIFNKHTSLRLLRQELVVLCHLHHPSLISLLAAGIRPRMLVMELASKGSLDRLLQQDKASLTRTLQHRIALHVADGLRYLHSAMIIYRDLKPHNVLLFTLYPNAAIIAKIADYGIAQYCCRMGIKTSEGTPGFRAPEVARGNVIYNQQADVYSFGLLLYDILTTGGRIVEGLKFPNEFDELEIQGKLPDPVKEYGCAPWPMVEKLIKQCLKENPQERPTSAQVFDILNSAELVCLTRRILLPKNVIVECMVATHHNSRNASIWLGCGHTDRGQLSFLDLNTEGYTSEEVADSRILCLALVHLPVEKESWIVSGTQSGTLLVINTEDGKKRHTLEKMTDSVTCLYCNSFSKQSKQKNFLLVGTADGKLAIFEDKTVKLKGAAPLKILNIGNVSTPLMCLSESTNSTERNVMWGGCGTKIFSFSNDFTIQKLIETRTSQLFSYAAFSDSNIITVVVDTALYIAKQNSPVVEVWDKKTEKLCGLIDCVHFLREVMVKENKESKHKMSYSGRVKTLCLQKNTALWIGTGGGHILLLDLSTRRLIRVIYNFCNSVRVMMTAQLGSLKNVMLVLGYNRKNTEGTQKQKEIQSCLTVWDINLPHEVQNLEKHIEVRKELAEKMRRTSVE
Experiment: experiment of inhibiting kinase activity, LRRK2
Type: biochemical
Details: at 10 nM; read-out: inhibition rate LRRK2

Consider the compound shown here: CN1CCOc2ccc(Nc3nc(-c4cnn(C5CN(S(C)(=O)=O)C5)c4)c4cc[nH]c4n3)cc2OCC1 [Example 69] What is its recorded inhibition at 0.01 µM?
25 to 39%

* * *

Biological target: CDK7 (Homo sapiens, UniProt P50613)
Sequence (P50613 whole entry, species assumed): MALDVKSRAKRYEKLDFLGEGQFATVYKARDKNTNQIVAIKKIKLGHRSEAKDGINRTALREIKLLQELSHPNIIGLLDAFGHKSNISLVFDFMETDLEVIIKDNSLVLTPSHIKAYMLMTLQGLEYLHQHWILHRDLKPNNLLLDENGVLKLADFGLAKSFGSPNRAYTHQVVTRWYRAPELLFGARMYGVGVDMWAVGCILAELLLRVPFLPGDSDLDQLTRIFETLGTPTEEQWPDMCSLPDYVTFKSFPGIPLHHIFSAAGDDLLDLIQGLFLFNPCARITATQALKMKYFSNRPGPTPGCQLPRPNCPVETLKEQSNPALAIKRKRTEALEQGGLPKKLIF
Sequence (P51946 whole entry partner, species assumed): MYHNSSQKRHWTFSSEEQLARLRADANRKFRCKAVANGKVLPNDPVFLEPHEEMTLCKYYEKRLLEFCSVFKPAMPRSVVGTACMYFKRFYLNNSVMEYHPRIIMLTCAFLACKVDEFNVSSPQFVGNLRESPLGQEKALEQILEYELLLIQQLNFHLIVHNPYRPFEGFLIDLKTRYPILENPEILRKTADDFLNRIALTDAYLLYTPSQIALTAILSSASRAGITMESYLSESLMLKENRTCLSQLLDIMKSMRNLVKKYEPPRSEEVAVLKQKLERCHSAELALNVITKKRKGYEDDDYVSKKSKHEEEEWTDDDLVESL
Sequence (P51948 whole entry partner, species assumed): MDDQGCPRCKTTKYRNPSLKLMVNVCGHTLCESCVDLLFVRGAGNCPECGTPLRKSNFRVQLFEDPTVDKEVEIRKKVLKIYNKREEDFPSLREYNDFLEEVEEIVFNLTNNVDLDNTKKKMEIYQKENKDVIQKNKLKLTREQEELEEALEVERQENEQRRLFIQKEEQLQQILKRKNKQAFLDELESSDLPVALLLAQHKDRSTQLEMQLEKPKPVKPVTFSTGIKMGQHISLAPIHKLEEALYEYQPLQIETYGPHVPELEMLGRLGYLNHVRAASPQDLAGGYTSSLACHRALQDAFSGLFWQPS
Assay: experiment of inhibiting kinase activity (Caliper mobility shift assay), CDK7
Format: biochemical
Conditions: at 100 nM; read-out: inhibition rate CDK7
measurementType: inhibition at 0.1 µM

What does the record list as inhibition at 0.1 µM for CN1CCOc2ccc(Nc3nc(-c4cn(C)c5ccccc45)c4cc[nH]c4n3)cc2OCC1 ?
25 to 39%

Look up inhibition at 0.1 µM for this compound: CC(C)S(=O)(=O)c1ccccc1Nc1nc(Nc2ccc3c(c2)OCCN(C)CCO3)nc2[nH]ncc12
40 to 79%

Looking for the measured inhibition at 0.1 µM of CN1CCOCCOc2cc(Nc3nc(-c4cnn(C(CC#N)C5CCCC5)c4)c4cc[nH]c4n3)ccc2OCC1 (stereo not shown) , can you help?
40 to 79%

Entry CC(C)S(=O)(=O)c1ccccc1Nc1nc(Nc2ccc3c(c2)OCCN(C)CCOCCO3)nc2[nH]ncc12 has what inhibition at 0.1 µM?
> 80%

Give its inhibition at 0.1 µM value. Item: CN1CCOCCOc2cc(Nc3nc(-c4cn(C)c5ccccc45)c4cn[nH]c4n3)ccc2OCC1
40 to 79%

What value of inhibition at 0.1 µM has been reported for the following compound? CN1CCOCCOc2cc(Nc3nc(Nc4ccccc4P(C)(C)=O)c4cc[nH]c4n3)ccc2OCC1
40 to 79%

What value of inhibition at 0.1 µM has been reported for the following compound? CC(C)S(=O)(=O)c1ccccc1Nc1nc(Nc2ccc3c(c2)OCCOCCN(C)CCO3)nc2[nH]ccc12
> 80%

Sourced from patent EP4592286A1
